# assay text: Pharmacokinetics in ICR mice after intravenous and intragastric administration
# Type: in vivo
# cond: male, ICR, mouse, plasma, iv, 2 mg/kg, ICR mice, IV 2 mg/kg, mean of 3 animals; read-out: t1/2 (converted)
If the reported half-life equals or exceeds 2 h, assign yes. If not, assign no.

// query Determine whether this compound has half-life no lower than 2 h: CCOc1ncc(-c2nc3c(n2C(C)C)[C@@]2(C(=O)Nc4cc(Cl)ccc42)N(c2cc(Cl)cnc2C)C3=O)c(OC)n1 [Example S-134]
// result no

// query Could you verify whether the entry COc1ccc(-c2nc3c(n2C(C)C)[C@@]2(C(=O)Nc4cc(Cl)ccc42)N(c2cc(Cl)cnc2C)C3=O)c(OC)c1 [Example S-61] shows half-life of no less than 2 h?
// result no

// query Evaluate CCOc1cc(OC)c(-c2nc3c(n2C(C)C)[C@@]2(C(=O)Nc4cc(Cl)ccc42)N(c2cc(Cl)ccc2C)C3=O)cn1 [Example S-72] : half-life at minimum 2 h?
// result no

// query Is half-life at least 2 h? Consider COc1cc(C(C)C)ccc1-c1nc2c(n1C(C)C)[C@@]1(C(=O)Nc3cc(Cl)ccc31)N(c1cc(Cl)ccc1C)C2=O [Example S-32]
// result no

// query Confirm if half-life reported for the compound COc1cc(OC(C)C)ncc1-c1nc2c(n1C(C)C)[C@@]1(C(=O)Nc3cc(Cl)ccc31)N(c1cc(Cl)ccc1C)C2=O [Example S-69] is 2 h or above.
// result yes
